assay: CREB reporter modulators under forskolin, primary screen, cell-based, PC12, CRE-LacZ reporter, forskolin-stimulated (AID 1146); settings: luminescence, 4.5 h, higher = more signal, called active from +8 up or from −8 down;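 further: PC12 cells with 6xCRE LacZ reporter stimulated by forskolin 10 µM; beta-galactosidase reporter signal reflecting CREB driven transcription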
# maps each entry to its z-score
RECORDED_METRIC: z-score

QUERY_SMILES	OBS_VALUE
COC(=O)[C@@]1(Cc2ccc(F)cc2)[C@H]2c3cc(C(=O)N4CCCC4)n(Cc4ccc(OC(F)(F)F)cc4)c3C[C@H]2CN1C(=O)c1ccccc1	0.137
COc1ccc(C(=O)Nc2ccc(CN3C(=O)[C@]4(O[C@H](CC(=O)N(CCO)Cc5ccccc5)[C@@H]([Si](C)(C)c5ccc(OC)cc5)[C@@H]4C)c4ccccc43)cc2)cc1	-0.221
COCCOC(=O)N1C(=O)[C@@]2(c3cc(C#CCNC(N)=O)ccc31)[C@H](C(N)=O)[C@H]1C(=O)O[C@H](c3ccccc3)[C@H](c3ccccc3)N1[C@@H]2c1ccc(O)cc1	-0.713
COC(=O)[C@@]1(Cc2ccc(F)cc2)[C@@H]2C(=CC(=O)[C@H]2CC(=O)C(=O)N2CCCC2)CN1C(=O)c1ccccc1	1.86

Source of measurements: PubChem BioAssay
